experiment: PSAC antagonists in infected red cells, primary screen, cell-based, P. falciparum Indochina, OD700, 18 h (AID 1157); settings: P. falciparum Indochina infected erythrocytes, osmotic lysis OD700, 18 h; higher = more signal, called active from +8 up or from −8 down
assayEndpoint: z-score
The answer should be a number; do not append a unit.

Determine its reported z-score: COc1ccc(O[C@H]2C=C[C@@H](c3ccccc3)O[C@@H]2CON=C(C)CCN2CCCc3nc(C)c(C)cc32)cc1
0.588

Determine its reported z-score: CC(C)(C)N1C(=O)[C@H]2[C@H]3[C@H](O)[C@H](O)CC(=NNC(=O)OCc4ccccc4)[C@@H]3CC[C@H]2C1=O
-0.385

Determine its reported z-score: CCc1cc2c(nc1CC)CCN(CCC(C)=NOC(C)CN1CCCCc3nc(C)c(C)cc31)C2 (stereo unspecified)
0.539

Determine its reported z-score: CO[C@@H]1COC(=O)[C@H](COCc2ccccc2)NC(=O)CC=C[C@@H](C)[C@H](OC)COC(=O)[C@@H](C)NC(=O)CC=C[C@H]1C
0.131

Determine its reported z-score: CC(CCN1CCc2nc(-c3ccccc3)c(-c3ccccc3)cc2C1)=NOC(C)CN1CCCc2nc(C)c(C)cc21 (stereo unspecified)
0.268

Determine its reported z-score: CCN1C(=O)[C@H]2[C@H]3[C@H](O)[C@H](O)CC(=NO[C@@H](C)c4cc(-c5c(C)cc(C)cc5C)no4)[C@@H]3CC[C@H]2C1=O
0.588

Determine its reported z-score: COc1ccc(-c2cnnc(CCCn3ccnc3-c3ccccc3)n2)cc1
0.982

Determine its reported z-score: COCOc1ccc(Br)cc1C(=O)C=Cc1ccc2c(c1)OCO2
-1.11

Determine its reported z-score: CCOC(=O)[C@H](Cc1ccccc1)NC(=O)CCC1CC(OC(=O)NCCc2ccc(F)cc2)CC2(CCCC(COC(=O)NCCOc3ccccc3)O2)O1 (stereo partly specified)
0.272

Determine its reported z-score: COC(=O)C1=C(C)N(Cc2ccccc2)C2=C3C(=O)OCC[C@@H]3[C@@](O)(C(=O)OC)C(=O)N2[C@@H]1c1ccccc1
0.126

Determine its reported z-score: CCOC(=O)[C@H](Cc1ccccc1)NC(=O)CCC1CC(OC(=O)NCc2cccc3ccccc23)CC2(CCCC(COC(=O)NCCc3ccc(Cl)cc3)O2)O1 (stereo partly specified)
-0.687

Determine its reported z-score: COC(=O)[C@@H]1CC[C@H](C)[C@@H](c2ccc(Br)cc2)N1C[C@H](O)CN=[N+]=[N-]
0.541

Determine its reported z-score: COc1ccc(O[C@H]2C=C[C@@H](C#Cc3ccccc3)O[C@@H]2CO)cc1
-0.144

Determine its reported z-score: CC(C)=CCCC(C)=CCON=C1[C@H]2CCn3c(=O)n(-c4ccccc4)c(=O)n3[C@H]2[C@H](O)[C@@H]2O[C@H]12
0.695

Determine its reported z-score: C#CCCCON=C1C[C@@H](O)[C@@H](O)[C@@H]2[C@@H]3C(=O)N(C4CCCCC4)C(=O)[C@@H]3CC[C@@H]12
0.132

Determine its reported z-score: O=C(NCCC[N+]1=CC=NC1c1ccccc1)N1CCCc2nc(-c3ccc(Br)cc3)ccc21 (stereo unspecified)
0.518

----------
Would you mind telling me the reported composite z-score of each entry?
tested on: XIP peptide (Xip251-270); experiment: small-molecule binders of XIP peptide, primary screen, biochemical, small-molecule microarray, fluorescence 635/667 nm, 0.5 µg/mL protein (AID 1183); settings: small-molecule microarray binding, fluorescence 635 nm; higher = more signal
The answer should be a number; do not append a unit.

Determine its reported composite z-score: COC(=O)CC=C[C@@H](C)[C@@H](C=NOC[C@@H](O)[C@H]1O[C@@H]2OC(C)(C)O[C@@H]2[C@H]1O)OC
-0.0618

Determine its reported composite z-score: CCCNC(=O)OC[C@H]1O[C@H](CCON=C[C@@H](NS(=O)(=O)c2ccc(C)cc2)[C@H](C)C=CCC(=O)OC)C=C[C@@H]1Oc1ccc(OC)cc1
-0.501

Determine its reported composite z-score: COc1ccc(COC(=O)NN=C2C[C@@H](O)[C@@H](O)[C@@H]3[C@@H]4C(=O)N([C@@H](C)c5ccccc5)C(=O)[C@@H]4CC[C@H]23)cc1
-0.273
